Data origin, for the record: PubChem BioAssay

We begin with a simple list: items and their reported viability.
Test: ovarian cancer cell viability with rucaparib, profiling panel, oncology-focused library, rucaparib conditional (AID 1508598)
Settings: patient-derived ovarian cancer cells, CellTiter-Glo viability, 144 h; at 0.000305 µM; OCI-C5x cells; without rucaparib; stronger effect = lower value
Give a bare numeral; the unit % is implied.

Qu. Reported viability, compound CCCCCCNC(=O)n1cc(F)c(=O)[nH]c1=O : ____
Ans. 114

Qu. Another compound: CN(CCOc1ccc(CC2SC(=O)NC2=O)cc1)c1ccccn1 (stereo unspecified)
Ans. 124

Qu. Another compound: S=c1nc[nH]c2nc[nH]c12
Ans. 111

Continuing:
Qu. Reported viability, compound O=c1[nH]cnc2[nH]ncc12 : ____
Ans. 122

Qu. Another compound: O=C1CCC(N2C(=O)c3ccccc3C2=O)C(=O)N1 (stereo unspecified)
Ans. 95

Qu. Another compound: CCN(CC)C(=S)SSC(=S)N(CC)CC
Ans. 126

----------
Assay: SU-DIPG-VI glioma cell viability, MIPE4.0 library, CellTiter-Glo luminescence, qHTS (AID 1347066);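 note: cells exposed to compound for 48 hours before readout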
Conditions: CellTiter-Glo ATP luminescence
Results filed as inconclusive are left out. Active and inactive are the calls of the source. No cut-off is given here; in the data, nearly all actives have AC50 up to about 30 µM.
ENDPOINT NAME: outcome

Worked cases, outcome given:
Qu. Reported outcome, compound Oc1ccc(/C=C/c2cc(O)cc(O)c2)cc1 : ____
Ans. inactive

Qu. Another compound: CCCc1nc2c(C)cc(-c3nc4ccccc4n3C)cc2n1Cc1ccc(-c2ccccc2C(=O)O)cc1
Ans. inactive

Qu. Another compound: CCC1(c2ccccc2)C(=O)NCNC1=O
Ans. inactive

Qu. Another compound: Cc1noc(NS(=O)(=O)c2ccc(N)cc2)c1C
Ans. inactive

Qu. Another compound: c1ccc2[nH]c(-c3cscn3)nc2c1
Ans. inactive

As a next step, examine the compound that follows.
Qu. Reported outcome, compound CC(=O)OCC(CCn1cnc2cnc(N)nc21)COC(C)=O : ____
Ans. inactive

----------
We begin with a simple list: items and their reported parasite % of control.
Experiment: kinase inhibitors against Plasmodium liver-stage infection, cell-based, known kinase inhibitor set, luminescence, hepatoma host viability (AID 624392);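 note: infected cells incubated roughly two days before readout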
Details: Plasmodium liver stage in hepatoma cells, luciferase luminescence, concentration not given here; stronger effect = lower value
Give a bare numeral; the unit % is implied.

Worked cases, parasite % of control given:
Qu. Reported parasite % of control, compound N=C1N=C(N)C(=Cc2ccc3ncccc3c2)S1 : ____
Ans. 61.8

Qu. Another compound: CS(=O)(=O)CCNCc1ccc(-c2ccc3ncnc(Nc4ccc(OCc5ccccc5)c(Cl)c4)c3c2)o1
Ans. 73.2

Qu. Another compound: N#Cc1cccc(Nc2nccc(-c3cnn4ncccc34)n2)c1
Ans. 19.1

Qu. Another compound: COc1ccccc1CCN=C1NC(=O)C(=Cc2ccc3ncccc3c2)S1
Ans. 68.7

Qu. Another compound: Cn1cc(C2=C(c3cn(C)c4ncccc34)C(=O)NC2=O)c2ccccc21
Ans. 38.8

Continuing:
Qu. Reported parasite % of control, compound Cc1ccc2c(-c3ccnc(Nc4ccc5c(c4)OCCO5)n3)c(-c3ccc(C(F)(F)F)cc3)nn2n1 : ____
Ans. 33.6

Qu. Another compound: COc1ccc(O)c(C(=O)c2ccc(C(=O)NC3CCCNCC3NC(=O)c3ccncc3)cc2)c1F (stereo not given)
Ans. 83.5

Qu. Another compound: CN1CCN(CCCNc2nc3ccc(Oc4ccc(NC(=O)Nc5cc(C(F)(F)F)ccc5F)cc4)cc3[nH]2)CC1
Ans. 94.4

Qu. Another compound: C[C@@H](Oc1cc(-n2cnc3ccc(OC4CCN(C)CC4)cc32)sc1C(N)=O)c1ccccc1Cl
Ans. 183

Qu. Another compound: NS(=O)(=O)c1ccc(N=Nc2c(O)[nH]c3cccc(CCc4ccncc4)c23)cc1
Ans. 102

Qu. Another compound: COc1cc(Nc2ncc3c(C)nc(-c4cccc(Oc5ccccc5)c4)n3n2)cc(OC)c1OC
Ans. 147

Qu. Another compound: O=C1NC(=NCCc2ccc(Br)cc2)SC1=Cc1ccc2ncccc2c1
Ans. 66.4

Qu. Another compound: CC1=C(C(=O)Nc2ccc3[nH]ncc3c2)C(c2ccc(F)cc2)N=C(c2ccc(C(F)(F)F)nc2)N1 (stereo not given)
Ans. 138

Qu. Another compound: Cn1cc(C2=C(c3cn(CCCN)c4ccccc34)C(=O)NC2=O)c2ccccc21
Ans. 23.2

Qu. Another compound: CC(=O)NC(Cc1ccc(OP(=O)(O)O)cc1)C(=O)NC1CCC(=O)N2CCCC(C(=O)NCc3ccc(Cl)cc3)N2C1=O (stereo not given)
Ans. 45.1

Qu. Another compound: Cn1cc(C2=C(c3cccc([N+](=O)[O-])c3)C(=O)NC2=O)c2ccccc21
Ans. 3.57

Qu. Another compound: COc1ccc(-c2cc3c(N)ncnc3o2)cc1
Ans. 203

Qu. Another compound: N#Cc1c(C(=O)c2ccccc2)cnn1-c1ccccc1
Ans. 56.2

Qu. Another compound: Cn1cc(C2=C(c3c(S(C)=O)n(C)c4ccccc34)C(=O)NC2=O)c2ccccc21 (stereo not given)
Ans. 78.6

Qu. Another compound: Cc1cc(O)cc(C)c1/C=C/c1cncc(-c2nn[nH]n2)c1
Ans. 109

----------
Assay: growth inhibition of GSK3B-pretreated HCT116 cells – cell-based, CellTiter-Glo, 0.2 to 20 µM (AID 1117336)
Conditions: HCT116 viability after GSK3B inhibitor, at 20 µM, stronger effect = higher value
ENDPOINT NAME: viability decrease (%)
Give a bare numeral; the unit % is implied.

Qu. Reported viability decrease, compound CC(COc1ccccc1)N(CCCl)Cc1ccccc1 (configuration not stated) : ____
Ans. -32.1

Continuing:
Qu. Reported viability decrease, compound O=C(OCC1(COC(=O)c2cccnc2)CCCC(COC(=O)c2cccnc2)(COC(=O)c2cccnc2)C1O)c1cccnc1 : ____
Ans. -3.6

Qu. Another compound: CCn1ccc(NS(=O)(=O)c2ccc(N)cc2)nc1=O
Ans. -22.1

Qu. Another compound: CC(=O)OC[C@H]1O[C@@](COC(C)=O)(O[C@H]2O[C@H](COC(C)=O)[C@@H](OC(C)=O)[C@H](OC(C)=O)[C@H]2OC(C)=O)[C@@H](OC(C)=O)[C@@H]1OC(C)=O
Ans. -1

Qu. Another compound: CCCCCC[C@@H](CCC)C(=O)O
Ans. 1.2

Qu. Another compound: C/C(=C(/OCCOc1ccc(Cl)cc1)c1ccc(Cl)cc1Cl)n1ccnc1
Ans. 102

Qu. Another compound: C[C@@H](O)[C@H](N)C(=O)O
Ans. -7.25

Qu. Another compound: COc1ccc(OC(=O)N(CC(=O)O)Cc2ccc(OCCc3nc(-c4ccccc4)oc3C)cc2)cc1
Ans. 100

Qu. Another compound: Cc1ncc(CO)c(CN)c1O
Ans. 4.25

----------
Assay: stimulators of nuclear beta-catenin in C2C12, primary screen, imaging, WNT3A-conditioned medium, mouse C2C12, NPC library (AID 1117326)
Settings: stimulation, at 2 µM, stronger effect = higher value
We begin with a simple list: items and their reported nuclear beta-catenin stimulation.
Give a bare numeral; the unit % is implied.

Worked cases, nuclear beta-catenin stimulation given:
Qu. Reported nuclear beta-catenin stimulation, molecule O=C(NCCc1c[nH]c2ccccc12)c1cccnc1 : ____
Ans. 1.7

Qu. Another molecule: O=Cc1ccccc1C=O
Ans. 0.2

Qu. Another molecule: CCN(CC)CCN
Ans. -1.7

Qu. Another molecule: CCCCCC1Nc2cc(C(F)(F)F)c(S(N)(=O)=O)cc2S(=O)(=O)N1 (stereo unspecified)
Ans. -0.2

Qu. Another molecule: O=C1NC(c2ccccc2)(c2ccccc2)C(=O)N1COP(=O)(O)O
Ans. 3.6

Qu. Another molecule: Cc1ccc(C)c(OCCCC(C)(C)C(=O)O)c1
Ans. 1.2

Continuing:
Qu. Reported nuclear beta-catenin stimulation, molecule Cc1cn([C@H]2C[C@H](F)[C@@H](CO)O2)c(=O)[nH]c1=O : ____
Ans. 3.4

Qu. Another molecule: Cc1ccc(C(C)OC(=O)C2(C)CCC(C(=O)O)C2(C)C)cc1 (stereo unspecified)
Ans. -2.1

Qu. Another molecule: C=CCNCCCCCC[N+](C)(C)C
Ans. 0.4

Qu. Another molecule: NS(=O)(=O)c1ccc(N2CCCCS2(=O)=O)cc1
Ans. -0.6

Qu. Another molecule: c1ccc2c(c1)CCc1ccccc1N2
Ans. 2.8

----------
Molecular target: Cellular tumor antigen p53 (Homo sapiens) (UniProt P04637)
Sequence (P04637 whole entry, looked up): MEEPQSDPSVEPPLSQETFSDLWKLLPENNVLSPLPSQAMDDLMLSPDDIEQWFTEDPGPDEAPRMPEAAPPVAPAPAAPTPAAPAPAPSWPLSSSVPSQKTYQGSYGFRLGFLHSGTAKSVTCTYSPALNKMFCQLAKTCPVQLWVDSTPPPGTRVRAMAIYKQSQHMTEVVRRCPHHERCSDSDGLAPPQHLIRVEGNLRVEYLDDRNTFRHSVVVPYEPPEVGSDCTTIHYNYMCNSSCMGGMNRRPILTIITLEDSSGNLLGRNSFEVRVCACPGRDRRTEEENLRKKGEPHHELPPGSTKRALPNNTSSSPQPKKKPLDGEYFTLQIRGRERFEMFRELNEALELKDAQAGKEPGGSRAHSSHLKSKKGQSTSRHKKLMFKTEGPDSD
Assay: kinase inhibitors altering GFP-p53 stability in HPV16-positive cells, imaging, known kinase inhibitor set, EGFP/DsRed ratio (AID 1053116);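 note: cells exposed to compounds for 24 h at 37 °C before reading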
Details: stronger effect = higher value; measured here: GFP-p53 positive objects count
Label fulfilled when EGFP object count is at or above 6; anything below gets not fulfilled.

Qu. Does Nc1c(C(=O)c2cccc(-c3cccnc3)c2)cnn1-c1ccc(F)cc1F have a reported EGFP object count of at least 6?
Ans. not fulfilled

Qu. Another molecule: Cn1cc(C2=C(c3cn(C)c4c([N+](=O)[O-])cccc34)C(=O)NC2=O)c2ccccc21
Ans. fulfilled

Qu. Another molecule: Cn1cc(C2=C(c3ccccc3C(F)(F)F)C(=O)NC2=O)c2ccccc21
Ans. fulfilled

Qu. Another molecule: CNC(=O)c1cncc(/C=C/c2ccccc2C)c1
Ans. not fulfilled

Qu. Another molecule: CNC(=O)c1cccc(C#Cc2cncnc2Nc2ccc(OCc3cccc(F)c3)c(Cl)c2)c1
Ans. not fulfilled

Qu. Another molecule: CN(C)CCOc1ccc(-c2cc(-c3ccc4c(c3)CC/C4=N/O)c(-c3ccncc3)o2)cc1
Ans. fulfilled

Continuing:
Qu. Does CN(c1ccc(NC(=O)NCCN2CCOCC2)cc1)c1ccnc(Nc2ccc(CS(C)(=O)=O)cc2)n1 have a reported EGFP object count of at least 6?
Ans. not fulfilled

Qu. Another molecule: Cn1cc(C2=C(c3c4n(c5ccccc35)CCN(C(N)=S)C4)C(=O)NC2=O)c2ccccc21
Ans. fulfilled

Qu. Another molecule: Cc1ccc2[nH]c(O)c(N=Nc3ccc(S(N)(=O)=O)cc3)c2c1
Ans. not fulfilled

Qu. Another molecule: CN(C)C(=O)O[C@H]1CN[C@H](C#Cc2cc3ncnc(Nc4ccc(OCc5cccc(F)c5)c(Cl)c4)c3s2)C1
Ans. not fulfilled

Qu. Another molecule: N#Cc1c(NC(=O)CN2CCOCC2)sc2c1CCCC2
Ans. not fulfilled

Qu. Another molecule: O=C1NC(=NCCCc2ccccc2)SC1=Cc1ccc2ncccc2c1
Ans. not fulfilled

Qu. Another molecule: O=C(NCC1CC1)c1ccc(-c2cccc(C(=O)NC3CC3)c2)cc1
Ans. not fulfilled

Qu. Another molecule: O=C1NC(=NCCc2ccccc2Cl)SC1=Cc1ccc2ncccc2c1
Ans. not fulfilled

Qu. Another molecule: CN(C)CCCNc1nccc(-c2c(-c3ccc(F)cc3)nn3cc(C(F)(F)F)ccc23)n1
Ans. not fulfilled

Qu. Another molecule: Nc1ncc(-c2cccc(S(N)(=O)=O)c2)c2scc(-c3ccc(F)c(Cl)c3)c12
Ans. fulfilled

Qu. Another molecule: Cc1ccc2c(-c3ccnc(Nc4ccc5c(c4)OCCO5)n3)c(-c3ccc(C(F)(F)F)cc3)nn2n1
Ans. not fulfilled

Qu. Another molecule: COc1cc(N2CCN(C(C)C)CC2)ccc1Nc1nc(Nc2ccc(F)cc2C(N)=O)c2cc[nH]c2n1
Ans. not fulfilled
